Data credit: patent US20240408169A1

target: CyclinA2/CDK2 (Homo sapiens, UniProt P20248); construct: purchased CRELUX Protein Services; assay: Fluorescence Polarization (FP) competitive binding assay, Cyclin A2/Cdk2; details: 8 nM Cyclin A2/Cdk2, 2 nM FAM probe; average of 2-3 independent experiments; read-out: Cyclin A FP IC50
pIC50: −log10 of the molar value. *1 amine or outer side, *2 acyl side, *3 side chain or, on linkers, in order; H or OH if unused. Where a SMILES comes first, the peptide text is derived from it. Bridges are numbered along the chain shown (N, C = ends). [ ]: non-standard residue; d: D form. The star is where a group is joined. X179 = CN([C@@H](Cc1cc(Cl)ccc1-c1ccc(N2CCOCC2)c(C#N)c1)C(=O)[*:2])[*:1]; NMehhhLys(Me) = CN([C@@H](CCCCCCCN(C)[*:3])C(=O)[*:2])[*:1]; X207 = CN([C@@H](Cc1cc(F)ccc1-c1cn(C)cn1)C(=O)[*:2])[*:1]; cBuCO(3,3-F2-1-CF3) = O=C(C1(C(F)(F)F)CC(F)(F)C1)*; Pro(trans-4-F) = O=C(O)[C@@H]1C[C@@H](F)CN1; Gly(cPr) = N[C@H](C(=O)O)C1CC1
Readout kind: pIC50

CC(C)C[C@@H]1NC(=O)[C@@H](N(C)C(=O)[C@@H](NC(=O)[C@@H]2C[C@@H](F)CN2C(=O)C2(C(F)(F)F)CC(F)(F)C2)C2CC2)C/C=C\CCCCN(C)C(=O)[C@H](Cc2cc(Cl)ccc2-c2cnn(C3CC3)c2)N(C)C1=O : 7.70
CC(C)C[C@@H]1NC(=O)[C@@H](N(C)C(=O)[C@@H](NC(=O)[C@@H]2C[C@@H](F)CN2C(=O)C2(C(F)(F)F)CC(F)(F)C2)C2CC2)CCCCCCCN(C)C(=O)[C@H](Cc2cc(F)ccc2-c2cn(C)cn2)N(C)C1=O [Example 164] ({cBuCO(3,3-F2-1-CF3)}-[Pro(trans-4-F)][Gly(cPr)][NMehhhLys(Me)]L[X207]; lactam 3-C) : 7.15
CC(C)C[C@@H]1NC(=O)[C@@H](N(C)C(=O)[C@@H](NC(=O)[C@@H]2C[C@@H](F)CN2C(=O)C2(C(F)(F)F)CC(F)(F)C2)C2CC2)CCCCCCCN(C)C(=O)[C@H](Cc2cc(Cl)ccc2-c2ccc(N3CCOCC3)c(C#N)c2)N(C)C1=O [Example 379] ({cBuCO(3,3-F2-1-CF3)}-[Pro(trans-4-F)][Gly(cPr)][NMehhhLys(Me)]L[X179]; lactam 3-C) : 7.52

====

target: CyclinA2/CDK2 (Homo sapiens, UniProt P20248); construct: purchased CRELUX Protein Services; assay: Fluorescence Polarization (FP) competitive binding assay, Cyclin A2/Cdk2; conditions: 8 nM Cyclin A2/Cdk2, 2 nM FAM probe; average of 2-3 independent experiments; read-out: Cyclin A FP IC50;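 note: plates equilibrated two hours at room temperature before polarization reading, IC50 fitted from eight-concentration compound titration curves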
*1 amine or outer side, *2 acyl side, *3 side chain or, on linkers, in order; H or OH if unused. Where a SMILES comes first, the peptide text is derived from it. Bridges are numbered along the chain shown (N, C = ends). [ ]: non-standard residue; d: D form. The star is where a group is joined. X53 = CN1[C@@H]2CC[C@H]1CN(c1ccc(-c3ccc(Cl)cc3C[C@@H](C(=O)[*:2])N(C)[*:1])cc1)C2; NMehhhLys(Me) = CN([C@@H](CCCCCCCN(C)[*:3])C(=O)[*:2])[*:1]; cBuCO(3,3-F2-1-CF3) = O=C(C1(C(F)(F)F)CC(F)(F)C1)*; Pro(trans-4-F) = O=C(O)[C@@H]1C[C@@H](F)CN1; Gly(cPr) = N[C@H](C(=O)O)C1CC1
Readout kind: IC50 (nM)

CC(C)C[C@@H]1NC(=O)[C@@H](N(C)C(=O)[C@@H](NC(=O)[C@@H]2C[C@@H](F)CN2C(=O)C2(C(F)(F)F)CC(F)(F)C2)C2CC2)CCCCCCCN(C)C(=O)[C@H](Cc2cc(Cl)ccc2-c2ccc(N3C[C@H]4CC[C@@H](C3)N4C)cc2)N(C)C1=O [Example 362] ({cBuCO(3,3-F2-1-CF3)}-[Pro(trans-4-F)][Gly(cPr)][NMehhhLys(Me)]L[X53]; lactam 3-C) : 20
CC(C)C[C@@H]1NC(=O)[C@@H](NC(=O)CNC(=O)[C@@H]2C[C@@H](F)CN2C(=O)C2(C(F)(F)F)CC2)CC=CCCCCNC(=O)[C@H](Cc2cc(Cl)ccc2Cl)N(C)C1=O : 620
